meta.source: patent US20080026996A1

- Study target: T1, rat VPAC1 receptor (rat, UniProt P30083 31-459)
- T1 sequence (looked up): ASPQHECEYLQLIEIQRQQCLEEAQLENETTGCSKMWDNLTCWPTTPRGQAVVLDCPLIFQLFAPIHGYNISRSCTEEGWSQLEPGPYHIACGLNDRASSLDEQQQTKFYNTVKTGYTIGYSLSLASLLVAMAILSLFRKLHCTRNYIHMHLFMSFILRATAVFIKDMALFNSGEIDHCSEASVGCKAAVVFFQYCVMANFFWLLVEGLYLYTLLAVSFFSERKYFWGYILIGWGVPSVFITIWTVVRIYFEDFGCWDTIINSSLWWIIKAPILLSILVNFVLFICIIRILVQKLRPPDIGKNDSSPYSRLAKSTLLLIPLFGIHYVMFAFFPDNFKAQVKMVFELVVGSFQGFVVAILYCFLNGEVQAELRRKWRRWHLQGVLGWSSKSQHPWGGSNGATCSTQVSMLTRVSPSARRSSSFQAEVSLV
- Experiment description: cell-based or functional assay
Where no end group is shown, it is not given here. [ ]: non-standard residue; d: D form. The star is where a group is joined. Hexanoyl = CCCCCC(=O)*; Aib = CC(C)(N)C(=O)O
Simple rule here: EC50 cAMP, DiscoveRx less than 1 nM is TRUE, otherwise FALSE.

Hexanoyl-HSDAVFTDNYTRLR[Aib]QLAA[Aib]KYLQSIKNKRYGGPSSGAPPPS (ends and bridges not checked) [P291] | FALSE
Hexanoyl-HSDAVFTDNYTRL[Aib]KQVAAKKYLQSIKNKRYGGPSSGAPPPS (ends and bridges not checked) [P167] | FALSE
Hexanoyl-HSDAVFTDNYTRLRKQVAAKKYLQSIKNKRYGGPSSGAPPPC [P120] | TRUE
Hexanoyl-HSDAVFTDNYTR[Aib]R[Aib]QVAA[Aib]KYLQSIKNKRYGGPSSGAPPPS (ends and bridges not checked) [P346] | FALSE

We now examine a further binder.
Q. Please indicate whether the reported EC50 cAMP, DiscoveRx of Hexanoyl-HSDAVFTDNYTRL[Aib]KQLAA[Aib]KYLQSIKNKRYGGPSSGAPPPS (ends and bridges not checked) [P240] is strictly below 1 nM.
A. FALSE
